Give apparent KD of MS2 coat protein for every item shown.
System: MS2 coat protein
method: apparent KD of MS2 coat protein; higher = weaker reporter binding
experimental conditions: Eterna round: R107; input ligand: theophylline 2 mM

These recorded examples may help you get a feel for the data.
UGUAAUGUGGGAAGGAGCGCAUACUUCACAUGAGGAUCACCCAUGUCAAGACGUGAGUCAGUGCAGGUAGGUCGCCUAGUUUAGA [Same State - Arginine B (Freestyle 18)] ... 88.9 nM
AUCUUUGAUGAUCUGGGAAAACCAGAUCGGCGAGGACCGGUACGGCCGCCACUCGUGUAUAAUAUACAUGAGGAUCACCCAUGUA [#20 Tryptophan A Same State] ... 91.6 nM

Give the measured apparent KD of MS2 coat protein of AGAUUCGACACGGCCGCCACUCGUGACGGAUUUCCGAGUGUCGAACAUGAGGAUCACCCAUGUACGAGGACCGGGUGUUGAGUCU [XTryp B #13] .
90.4 nM

---

Tested on: K4 kissing-loop RNA reporter
method: apparent KD of K4 kissing-loop reporter; higher = weaker reporter binding
experimental conditions: Eterna round: R107; input ligand: arginine 13.2 mM
# label = TRUE if apparent KD of K4 kissing-loop reporter >= 300 nM else FALSE

AUAAACUUGCAGUGAUGUUGCAAGUAAGACUAGGAUAUCAGGAAACUGAGAAGGAGUCAUCUCCUUCAACUGCAAGAAUGAAGGA [[K1]-[K2]-[F1]-[F2]-[F]'-[K]'-[F]''_Design4] ... FALSE

Kindly determine if apparent KD of K4 kissing-loop reporter recorded for CAUAGACAAGUGAUGUUUGUCAUAACCGAAGGAGCGUCGUUGAAGACAGGUAGGUCGCGGAUUAAUUAAGAUUAUAUUCUUUUUA [JR_SSArginiA_Sub019] is above or exactly 300 nM.
TRUE

Similarly, UGUGAACAAAAGUAGAGUGGACCACUAUAGCGAGGACCGGUACGGCCGCCACUCGUGCAUGAAUUCAGUGAUGUUGAAAAGAGCU [whbob_EX_Tryp_A_t12] ?
TRUE

Similarly, UGAUUGAACUGAAGGAGCGGCAAGAGAGAAGGAAAUAUAGUGAUGUUAUAUAAGAGAGAGAGCCAGGUAGGUCGCAGAGGGAGGA [ExArgB.D] ?
FALSE

Similarly, AGGAGCGUGGGAUGUAAAUCGCACGCUCCUCGAGGACCGGUACGGCCGCCACUCGCUCGCGCCGAGUGAUGUUCGGCCGGCGAAC [#2 Same State - Tryptophan A Attempt #13 (HarryS)] ?
TRUE

---

Tested on: K4 kissing-loop RNA reporter;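 further: bound reporter read as fluorescence of individual clusters on recovered sequencing chips by microscopy, with normalized cluster intensities fitted with a binding model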
method: apparent KD of K4 kissing-loop reporter; higher = weaker reporter binding
experimental conditions: Eterna round: R107; input ligand: none
readout: apparent KD of K4 kissing-loop reporter (nM)
Numbers only, in nM.

These recorded examples may help you get a feel for the data.
AAGUACACGAUAGUGUACACCUAGUGAUGUUAGGAUAUGCAGAUAUGCAGAAGGAACGAGUCAUCUGACAAUAGUCGGAUGACAA [FmnAX 8 #OpenEnded #K4Early] ... 100
GUACACUCUCGAGUGAUGUUCGGUAAUAGAGAGGAUAUCGCUUUUGCGAGAAGGCUCUGAAUGAGGAAACUCGUUCUGUGUGUAC [FMN A 20] ... 1160
GGUCGAGUGAUGUUCGAUGUUAUGCAUUCAGAGGAUAUAGGAUUAGCUAGAAGGCUGAAUCAAUCUUCGAGUGAUGUUCGAGGAU [Same State FMN A GF 9] ... 115
AAUCGCGAGUCAGAUACCAGUUGGCUCGAGAGUCAGUGAUGUUGAUGUAAAUCUUAGGCGAACCCUUGGCAGCUGUCACCAGUCC [theeternabot_sameState_KL_Theo_B_27] ... 354
GCCGUACGCAUGGAUACCAGCACAGGCCGAAGUGAUGUUUCGUGCGUAUAUUUGUGCUACUGCCCUUGGCAGCCAUGCGUACGGC ... 73.9

Now consider the entry below.
Give the measured apparent KD of K4 kissing-loop reporter of CAUAGGAAACUAUGUUUCUCUCUUACUGAAGGAGCGCGUGAAAACGCAGGUAGGUCGCAGAAUUUGAGAGUGAUGUUCUCAUUAA [Ex Arginine A K4 14] .
175

---

Give apparent KD of MS2 coat protein for every item shown.
Tested on: MS2 coat protein
method: apparent KD of MS2 coat protein; designed switch direction (-1 OFF switch, 1 ON switch): 1; higher = weaker reporter binding
experimental conditions: input ligand: microRNA oligo, concentration not stated
Give bare numbers, in nM.

These recorded examples may help you get a feel for the data.
CUGAGCGAUCGAGGAUAUCACGUCGAUUAGACGUGAGAAGGCGAUCAUAACAUGAGGAUCACCCAUGUAUUACAUGAAGCUCAG [SSNG1/4-A2] (Eterna round: R96, puzzle: Same State NG 1) ... 12.9
AUUAUCAAUGCAGGAUAUGAUUAACAUGAGGAUCACCCAUGUGGUGUUGUGAGUAAGGAGAGUGAUCAGAAGGGCAUUUUUUUU [JMF's solution 26] (Eterna round: R96, puzzle: Same State NG 2) ... 261
CUGAGCGAUCUAGGAUAUCACGUCGAAUAGACGUGAGAAGGAGAUCAUAACAUGAGGAUCACCCAUGUAUUACAUGAAGCUCAG [SSNG1/6-A1] (Eterna round: R96, puzzle: Same State NG 1) ... 10.4
UAAAUGAAGUAAGGAUAUACAUGAGGAUCACUCGUAGAAGGUACUAUACAUGAGGAUCACCCAUGUGCCGGUCAGAAGACUGGA [Mat - Same State NG 1 - JL mod - D6] (Eterna round: R96, puzzle: Same State NG 1) ... 533
AGCCGAGACUGAGGAUAUUUUAAUCUACAUGAGGAUCACCCAUGUAACAACACGUGGUAGUGAUAGAAGAAGGCGGCUCGGCGC [Omei SS(NG)2 Cv1] (Eterna round: R96, puzzle: Same State NG 2) ... 162

I have 2 sequences here; please give me apparent KD of MS2 coat protein for each one.
1. UUCACCUUUUUUAACAUGAGGAUCACCCAUGUAUAUUGUACGUAGGAUAUCGAUGCUUUUUUUUUCGAGAAGGACGAUGUAAGU [JR_SSND3_Sub051] (Eterna round: R96, puzzle: Same State NG 3)
2. GGUAGGUUACUACCAAACAUGAGGAUCACCCAUGUAAGUGGGAAGGAUAUGGUACCUAUUUGGUACCAGAAGGUCCAAUUAAUU [Fiskers NG3ss - 3] (Eterna round: R96, puzzle: Same State NG 3)

1: 34.2; 2: 111

I have 4 sequences here; please give me apparent KD of MS2 coat protein for each one.
1. UUUAGUUGCGGGCAGGAUAUGUAUUAAAAUACAUGAGGAUCACCCAUGUGCGGGUAUAACACCCGACAGAAGGGCCAAUCGCGAC [Laonerce] (Eterna round: R96, puzzle: Same State 2)
2. AAACACAGCAUAACGCUGUGACAUGAGGAUCACCCAUGUACACAGGAUAUCAUGGCAUAACGCCAUGAGAAGGGUGAUCAAGAC [Arxeerte] (Eterna round: R96, puzzle: Same State NG 3)
3. UGGAUGGUGAUAGGAUAUACAUGAGGAAUCCUCGUAGAAGGAUCACGACAUGAGGAUCACCCAUGUAGCCGUCCGUAGACGGCU [salish99_SSNG1_r04_004] (Eterna round: R96, puzzle: Same State NG 1)
4. GUUACAUGAGGAUCACCCAUGUAUGUGUGGGAGUAAGUGUCUUAGGAUAUCUAGUAUUUAAUUAAAGAGAAGGAAGAUUGUUGU [JMF's solution 66] (Eterna round: R96, puzzle: Same State NG 3)

1: 256; 2: 2.71; 3: 122; 4: 74.6

I have 2 sequences here; please give me apparent KD of MS2 coat protein for each one.
1. AGCGUCCACACAGGAUAUCACCUGCACUACAGGUGAGAAGGGUGACCGGUGCGCAAUAACGACAUGAGGAUCACCCAUGUAAAA [Enraquleer] (Eterna round: R96, puzzle: Same State NG 1)
2. UUAUUCUAUAUAGGAUAUUGAUGUAAUUUAUUUCAAGAAGGAUAUACAUGAGGAUCACCCAUGUUGGAUAGGGUUAGUUUGUUU [JR_SSNG1_Sub080] (Eterna round: R96, puzzle: Same State NG 1)

1: 93.2; 2: 58.2

---

Give apparent KD of MS2 coat protein for every item shown.
Tested on: MS2 coat protein
method: apparent KD of MS2 coat protein; designed switch direction (-1 OFF switch, 1 ON switch): -1; higher = weaker reporter binding
experimental conditions: input ligand: microRNA oligo, concentration not stated
Give bare numbers, in nM.

These recorded examples may help you get a feel for the data.
GGCACACAUGUAGGAUAUCUGCACGUGUAGUGCAGAGAAGGACAUGAGGAUCACCCAUGUAAUUAAGAUCAAUUAUUAAGUGCC [ENG1/3-A3] (Eterna round: R96, puzzle: Exclusion NG 1) ... 48.6
ACAUGACAGCUAGGAUAUAAAUGACAUGAGGAUCACCCAUGUUGUCCCAUGUUGAGGAUCACCCAUUAGAAGGAGCCACCCAUG [Exclusion NG2 S1] (Eterna round: R96, puzzle: Exclusion NG 2) ... 49.2
ACAUGAGGAUCACCCAUGUCCGGCUGGUCCGUCUCGGCUGUCGAGGAUAUAGCUCGGUGUCCGCGCUAGAAGGUGGGAGCCGGC [Aenatbe mod 72] (Eterna round: R96, puzzle: Exclusion NG 3) ... 134
GAGAGAGCCAUAGGAUAUGCCCGCCCGCUUGCGGCAGAAGGAUGUUGACAUGAGGAUCACCCAUGUGGAUCGCCCAUGUUUGUG [All by luck] (Eterna round: R96, puzzle: Exclusion NG 1) ... 191
CACCGUUACGUAGGAUAUGUUACAUGAGGAUCACCCAUGUAAUAAAUGAGAAUUUCGAAUGUAAUACAGAAGGACGGAAUCGGC [Ostracism 70 - Jieux - Exclusion NG 2] (Eterna round: R96, puzzle: Exclusion NG 2) ... 26

I have 2 sequences here; please give me apparent KD of MS2 coat protein for each one.
1. CACCGUUACCUAGGAUAUAGUACAUGAGGAUCACCCAUGUAAUAAAUGAGAAUUUCGGAUGUAUGCUAGAAGGAGGAAAUCGGC [Ostricism 49 - Jieux - Exclusion NG 2] (Eterna round: R96, puzzle: Exclusion NG 2)
2. AACCUGAGGCUUUGCUUUAGGUGUACAUGAGGAUCACCCAUGUAGGAUAUGGUAGGCUUUGCUUACCAGAAGGACAUGUUAAUU [JL ENG3 1.11] (Eterna round: R96, puzzle: Exclusion NG 3)

29.7
48.9
